system: panel of 240 cancer cell lines; test: 10-day growth/death assay (Eurofins panel); assay type: cell-based; details: Homo sapiens, MHH-PREB-1, MHH-PREB-1; read-out: gIC50
metric: IC50

Using panel of 240 cancer cell lines as the test system, report measured IC50 of O=C(NC[C@H](O)CN1CCc2ccccc2C1)c1ccnc(NC2CCC2)c1 [GSK3203591] .
> 10 µM

---

system: panel of hematologic and solid cancer lines; test: 6-day in vitro growth/death assay; type: cell-based, human; conditions: Homo sapiens, LN-229, LN-229; read-out: gIC50
Parameter IC50: see the listing below.
Provide the reading as a plain figure in nM.

CC(=O)N1CCC(Nc2cc(C(=O)NC[C@H](O)CN3CCc4ccccc4C3)ncn2)CC1 [GSK3326595] = 254

Here's the next entry for you.
Report IC50, nothing else, for this molecule: O=C(NC[C@H](O)CN1CCc2ccccc2C1)c1ccnc(NC2CCC2)c1 [GSK3203591]
1150

---

System: panel of hematologic and solid cancer lines
Assay: 6-day in vitro growth/death assay
Format: cell-based, human
Settings: WSU-NHL; read-out: gIC50
Protocol: To further develop these molecules and to guide clinical strategy, it was necessary to understand sensitivity in preclinical models by assessing the anti-tumour activity of the PRMT5 inhibitors in various cancers. Cell lines were obtained from ATCC or DSMZ and were grown in recommended medium, which was most frequently RPMI-1640 containing 10% FBS. Cell line proliferation assays, Western blotting, qRT-PCR, and cell cycle analyses were performed as described previously[27],[28]. […]
metric: IC50 (nM)
Provide the reading as a plain figure in nM.

Report IC50, nothing else, for this molecule: CC(=O)N1CCC(Nc2cc(C(=O)NC[C@H](O)CN3CCc4ccccc4C3)ncn2)CC1 [GSK3326595]
8

---

system: panel of 240 cancer cell lines; experiment: 10-day growth/death assay (Eurofins panel); type: cell-based; conditions: Homo sapiens, CFPAC-1, CFPAC-1; read-out: gIC50
metric: IC50

Report IC50, nothing else, for this compound: `O=C(NC[C@H](O)CN1CCc2ccccc2C1)c1ccnc(NC2CCC2)c1`
52.3 nM

---

tested on: panel of 240 cancer cell lines; experiment: 10-day growth/death assay (Eurofins panel); assay type: cell-based; details: Homo sapiens, SKO-007, SKO-007; read-out: gIC50
metric: IC50 (nM)
Provide the reading as a plain figure in nM.

Report IC50, nothing else, for this molecule: O=C(NC[C@H](O)CN1CCc2ccccc2C1)c1ccnc(NC2CCC2)c1 [GSK3203591]
84.4

---

tested on: panel of 240 cancer cell lines; test: 10-day growth/death assay (Eurofins panel); assay type: cell-based; details: Homo sapiens, Raji; read-out: gIC50
metric: IC50
Number plus unit, in that order.

Using panel of 240 cancer cell lines as the test system, report measured IC50 of `O=C(NC[C@H](O)CN1CCc2ccccc2C1)c1ccnc(NC2CCC2)c1` .
24.5 nM

---

system: panel of hematologic and solid cancer lines; experiment: 6-day in vitro growth/death assay; type: cell-based, human; details: Homo sapiens, LS-411N, Ls411N; read-out: gIC50
metric: pIC50
Value format note: pIC50 is -log10 of concentration (mol/L); just state the number.

Report pIC50, nothing else, for this molecule: `O=C(NC[C@H](O)CN1CCc2ccccc2C1)c1ccnc(NC2CCC2)c1`
6.35
